# run-description: in vivo
# Parameters: species or system mice
# experimental-setup: male, NOD.Cg-Rag1tm1Momll2rgtm1Wjl/SzJ (NRG), mouse, iv, total radioactivity, Biodistribution: Blood
Where a SMILES comes first, the peptide text is derived from it. Bridges are numbered along the chain shown (N, C = ends). [ ]: non-standard residue; d: D form. The star is where a group is joined. X3 = O=C(O)CN1CCN(CC(=O)O)CCN(CC(=O)N[C@@H](CS(=O)(=O)O)C(=O)N[C@@H](CCCCNC(=O)CCCc2ccc(Br)cc2)C(=O)*)CCN(CC(=O)O)CC1; X1 = O=C(O)CN1CCN(CC(=O)O)CCN(CC(=O)N[C@@H](CS(=O)(=O)O)C(=O)N[C@@H](CCCCNC(=O)CCCc2ccc(I)cc2)C(=O)*)CCN(CC(=O)O)CC1; 2Nal = N[C@@H](Cc1ccc2ccccc2c1)C(=O)O; Lys(iPr) = CC(C)NCCCC[C@H](N)C(=O)O
Known tissue uptake at 120 h of a selection of compounds
Enter your answer as a number in %ID/g; do not include the unit.

Reported tissue uptake at 120 h ( CC(C)NCCCC[C@H](NC(=O)[C@H]1CCC(=O)N[C@@H](CCCCNC(=O)[C@H](CCCCNC(=O)CCCc2ccc(I)cc2)NC(=O)[C@H](CS(=O)(=O)O)NC(=O)CN2CCN(CC(=O)O)CCN(CC(=O)O)CCN(CC(=O)O)CC2)C(=O)N[C@@H](Cc2ccc(O)cc2)C(=O)N[C@@H](CCCCNC(C)C)C(=O)N[C@H](CCCNC(=N)N)C(=O)N[C@@H](Cc2ccc3ccccc3c2)C(=O)N[C@H](C)C(=O)N1)C(N)=O [[^177Lu]Lu-BL34L11, metal not drawn] (K(X1)Y[Lys(iPr)][dR][2Nal][dA][dE][Lys(iPr)]-NH2; lactam N-7) ) = 1.6

Pending compound:
Recorded result, CC(C)NCCCC[C@H](NC(=O)[C@H]1CCC(=O)N[C@@H](CCCCNC(=O)[C@H](CCCCNC(=O)CCCc2ccc(Br)cc2)NC(=O)[C@H](CS(=O)(=O)O)NC(=O)CN2CCN(CC(=O)O)CCN(CC(=O)O)CCN(CC(=O)O)CC2)C(=O)N[C@@H](Cc2ccc(O)cc2)C(=O)N[C@@H](CCCCNC(C)C)C(=O)N[C@H](CCCNC(=N)N)C(=O)N[C@@H](Cc2ccc3ccccc3c2)C(=O)N[C@H](C)C(=O)N1)C(N)=O [[^177Lu]Lu-BL34L20, metal not drawn] (K(X3)Y[Lys(iPr)][dR][2Nal][dA][dE][Lys(iPr)]-NH2; lactam N-7) , tissue uptake at 120 h: 0.36

---

# run-description: in vivo
# Set-up: species or system mice
# experimental-setup: male, NOD.Cg-Rag1tm1Mom Il2rgtm1Wjl/SzJ (NRG), mouse, iv, total radioactivity, Biodistribution: Pancreas
Where a SMILES comes first, the peptide text is derived from it. Bridges are numbered along the chain shown (N, C = ends). [ ]: non-standard residue; d: D form. The star is where a group is joined. X1 = O=C(O)CN1CCN(CC(=O)O)CCN(CC(=O)N[C@@H](CS(=O)(=O)O)C(=O)N[C@@H](CCCCNC(=O)CCCc2ccc(I)cc2)C(=O)*)CCN(CC(=O)O)CC1; 2Nal = N[C@@H](Cc1ccc2ccccc2c1)C(=O)O; Lys(iPr) = CC(C)NCCCC[C@H](N)C(=O)O
parameter: tissue uptake at 120 h
Field note: include the unit after the figure.

Just so you know, measured tissue uptake at 120 h for CC(C)NCCCC[C@H](NC(=O)[C@H]1CCC(=O)N[C@@H](CCCCNC(=O)[C@H](CCCCNC(=O)CCCc2ccc(I)cc2)NC(=O)[C@H](CS(=O)(=O)O)NC(=O)CN2CCN(CC(=O)O)CCN(CC(=O)O)CCN(CC(=O)O)CC2)C(=O)N[C@@H](Cc2ccc(O)cc2)C(=O)N[C@@H](CCCCNC(C)C)C(=O)N[C@H](CCCNC(=N)N)C(=O)N[C@@H](Cc2ccc3ccccc3c2)C(=O)N[C@H](C)C(=O)N1)C(N)=O [[^177Lu]Lu-BL34L11, metal not drawn] (K(X1)Y[Lys(iPr)][dR][2Nal][dA][dE][Lys(iPr)]-NH2; lactam N-7) came out at 0.53 %ID/g

---

# run-description: in vivo
# Set-up: species or system mice
# experimental-setup: male, NOD.Cg-Rag1tm1Mom Il2rgtm1Wjl/SzJ (NRG), mouse, iv, total radioactivity, Biodistribution: Bone
Where a SMILES comes first, the peptide text is derived from it. Bridges are numbered along the chain shown (N, C = ends). [ ]: non-standard residue; d: D form. The star is where a group is joined. X4 = O=C(O)CN1CCN(CC(=O)O)CCN(CC(=O)N[C@@H](CS(=O)(=O)O)C(=O)NCCCC[C@H](NC(=O)CNC(=O)CCCc2ccc(Cl)cc2)C(=O)*)CCN(CC(=O)O)CC1; 2Nal = N[C@@H](Cc1ccc2ccccc2c1)C(=O)O; Lys(iPr) = CC(C)NCCCC[C@H](N)C(=O)O
parameter: tissue uptake at 3 h (%ID/g)
Give just the number in %ID/g; leave the unit off.

According to the records, this compound CC(C)NCCCC[C@H](NC(=O)[C@H]1CCC(=O)N[C@@H](CCCCNC(=O)[C@H](CCCCNC(=O)[C@H](CS(=O)(=O)O)NC(=O)CN2CCN(CC(=O)O)CCN(CC(=O)O)CCN(CC(=O)O)CC2)NC(=O)CNC(=O)CCCc2ccc(Cl)cc2)C(=O)N[C@@H](Cc2ccc(O)cc2)C(=O)N[C@@H](CCCCNC(C)C)C(=O)N[C@H](CCCNC(=N)N)C(=O)N[C@@H](Cc2ccc3ccccc3c2)C(=O)N[C@H](C)C(=O)N1)C(N)=O [[68Ga]Ga-BL34T1, metal not drawn] (K(X4)Y[Lys(iPr)][dR][2Nal][dA][dE][Lys(iPr)]-NH2; lactam N-7) displays tissue uptake at 3 h of 1.28

---

Entries and their tissue uptake at 120 h values follow.
# run-description: in vivo
# Set-up: species or system mice
# experimental-setup: male, NOD.Cg-Rag1tm1Momll2rgtm1Wjl/SzJ (NRG), mouse, iv, total radioactivity, Biodistribution: Stomach
Where a SMILES comes first, the peptide text is derived from it. Bridges are numbered along the chain shown (N, C = ends). [ ]: non-standard residue; d: D form. The star is where a group is joined. X3 = O=C(O)CN1CCN(CC(=O)O)CCN(CC(=O)N[C@@H](CS(=O)(=O)O)C(=O)N[C@@H](CCCCNC(=O)CCCc2ccc(Br)cc2)C(=O)*)CCN(CC(=O)O)CC1; X1 = O=C(O)CN1CCN(CC(=O)O)CCN(CC(=O)N[C@@H](CS(=O)(=O)O)C(=O)N[C@@H](CCCCNC(=O)CCCc2ccc(I)cc2)C(=O)*)CCN(CC(=O)O)CC1; 2Nal = N[C@@H](Cc1ccc2ccccc2c1)C(=O)O; Lys(iPr) = CC(C)NCCCC[C@H](N)C(=O)O
Quick note: give the figure in %ID/g, leave out the unit.

Sample CC(C)NCCCC[C@H](NC(=O)[C@H]1CCC(=O)N[C@@H](CCCCNC(=O)[C@H](CCCCNC(=O)CCCc2ccc(Br)cc2)NC(=O)[C@H](CS(=O)(=O)O)NC(=O)CN2CCN(CC(=O)O)CCN(CC(=O)O)CCN(CC(=O)O)CC2)C(=O)N[C@@H](Cc2ccc(O)cc2)C(=O)N[C@@H](CCCCNC(C)C)C(=O)N[C@H](CCCNC(=N)N)C(=O)N[C@@H](Cc2ccc3ccccc3c2)C(=O)N[C@H](C)C(=O)N1)C(N)=O [[^177Lu]Lu-BL34L20, metal not drawn] (K(X3)Y[Lys(iPr)][dR][2Nal][dA][dE][Lys(iPr)]-NH2; lactam N-7) ; tissue uptake at 120 h observed: 0.07

Then this molecule:
tissue uptake at 120 h reported for this molecule CC(C)NCCCC[C@H](NC(=O)[C@H]1CCC(=O)N[C@@H](CCCCNC(=O)[C@H](CCCCNC(=O)CCCc2ccc(I)cc2)NC(=O)[C@H](CS(=O)(=O)O)NC(=O)CN2CCN(CC(=O)O)CCN(CC(=O)O)CCN(CC(=O)O)CC2)C(=O)N[C@@H](Cc2ccc(O)cc2)C(=O)N[C@@H](CCCCNC(C)C)C(=O)N[C@H](CCCNC(=N)N)C(=O)N[C@@H](Cc2ccc3ccccc3c2)C(=O)N[C@H](C)C(=O)N1)C(N)=O [[^177Lu]Lu-BL34L11, metal not drawn] (K(X1)Y[Lys(iPr)][dR][2Nal][dA][dE][Lys(iPr)]-NH2; lactam N-7) : 0.24
